Every entry's value here was drawn from PubChem BioAssay (NCI).

Task for the reader: assign each of the following compounds its reported TGI.
test system: SF-268 CNS; test: NCI tumour cell line growth inhibition, 48 h

Bench note, SF-268 CNS: O=S1c2ccccc2N=C(c2ccc(Cl)cc2)CC1c1cccs1 (stereo not given) , TGI reads > 100 µM

Reported TGI (SF-268 CNS) for entry COC(=O)[C@H](Cc1ccccc1)NP(=O)(O)OCC1OC(n2cc(C)c(=O)[nH]c2=O)CC1N=[N+]=[N-] (stereo not given in full) is > 100 µM

Record O=C1CC2C(=O)C1C(C(=O)O)C2C(=O)O (stereo not given) / SF-268 CNS, TGI recorded as > 100 µM

Record COc1cc([C@@H]2c3cc4c(cc3[C@@H](NCc3ccc(C#N)cc3)C3COC(=O)[C@@H]32)OCO4)cc(OC)c1O (stereo not given in full) ; system SF-268 CNS; TGI = 6.6 µM

Let me check: O=C(OCC1CCCN2CCCCC12)c1ccncc1 (stereo not given) , system SF-268 CNS, measured TGI is > 100 µM

---

tested on: SK-MEL-5 melanoma; assay: NCI tumour cell line growth inhibition, 48 h
Each entry gets NO if its TGI stays under 20 µM, and YES if its TGI is 20 µM or above.

# input Is the recorded value of TGI equal to or greater than 20 µM for this compound? CC1(C)C(=O)C2(OS(=O)(=O)C(F)(F)F)CCC1C2 (centres undefined)
# output YES

# input Assess whether reported TGI for CN(C)Cc1cccc(CN(C)C)[c]1[Sn]([Br])([c]1ccccc1)[c]1ccccc1 sits at 20 µM or higher.
# output YES

# input Answer whether TGI of NC12CC3CC4C1CC1CC2C(C3)C4(N)C1 is greater than or equal to 20 µM.
# output YES

# input Hello, I need to know if CC(=O)NC1C(OCc2ccccc2)OC(COC(=O)CCCCCNc2ccc([N+](=O)[O-])c3[nH]c4ccc(O)cc4c(=O)c23)C(O)C1OC(C)C(=O)N[C@@H](C)C(=O)N[C@H](CCC(=O)OCc1ccccc1)C(N)=O (some centres undefined) has measured TGI not below 20 µM. Thanks!
# output YES

# input Assess whether reported TGI for CN(C1=NS(=O)(=O)N=C(N(C)c2ccccc2)O1)c1ccccc1 sits at 20 µM or higher.
# output YES

# input Decide: is the reported value of TGI for O=C(Nc1ccc(Cl)cc1)c1cc2cc(F)ccc2cc1O equal to or greater than 20 µM?
# output NO

# input Tell me whether TGI is at least 20 µM here: Cc1ccc2c(N/N=C\c3ccco3)cc(C)nc2n1
# output YES

# input Has Cc1ccc(O)c(-c2csc(NCN3CCN(CNc4nc(-c5cc(C)ccc5O)cs4)CC3)n2)c1 a recorded TGI greater than or equal to 20 µM?
# output YES

# input Test whether the compound O=C(c1cc2c(C(F)(F)F)onc2c2ccccc12)C(F)(F)F records TGI of 20 µM or higher.
# output NO

---

tested on: UACC-62 melanoma; experiment: NCI tumour cell line growth inhibition, 48 h
For each entry below, report its TGI value.

Entry under test: CCN(CC)C(=O)CNC(=O)OC(C)(C)C . Its TGI was > 100 µM

TGI reported for this compound O=C(/C=C\Nc1ccccc1O)C(Cl)(Cl)Cl : > 100 µM

// recorded TGI for CC(=O)O[C@H]1C(=O)[C@@]2(C)[C@H]([C@H](OC(=O)c3ccccc3)[C@]3(O)C[C@H](OC(=O)[C@H](O)[C@@H](NC(=O)CC(C)C)c4ccccc4)C(C)=C1C3(C)C)[C@]1(OC(C)=O)CO[C@@H]1C[C@@H]2O : > 10 µM

# TGI (compound: O=C(O[C@H]1CN[C@H](C#Cc2cc3ncnc(Nc4ccc(OCc5cccc(F)c5)c(Cl)c4)c3s2)C1)N1CCOCC1 ) is > 25 µM

Sure, the documented TGI for COc1ccc(-n2c3c(c4c(CN(C)C)c(O)ccc42)C(=O)c2ccccc2C3=O)cc1 is 15.7 µM

Just so you know, measured TGI for CC(C)(C)OC(=O)NC(Cc1ccc(OCc2ccccc2)cn1)C(=O)N1CCSCC1 (centres undefined) came out at > 100 µM

// C=CCCC(C)N(C(=O)OC(C)(C)C)S(=O)(=O)c1ccc(C)cc1 (centres undefined) : TGI value = > 100 µM

TGI reading for Oc1cccc(Cn2c(-c3cccc(O)c3O)nc3ccccc32)c1O : 12.6 µM

Briefly, TGI measured for C/C(=N\NS(=O)(=O)c1ccc(C)cc1)c1c(O)cc(C)oc1=O : > 100 µM

---

tested on: SK-MEL-28 melanoma; assay: NCI tumour cell line growth inhibition, 48 h
Please respond with reported TGI for every item in the list.

Record Nc1nc(N)c2nnn(C[C@H]3CC[C@@H](CO)C3)c2n1 . Reported TGI: > 100 µM

Notebook: COC(=O)c1ccc(CCc2cc(O)c(Br)cc2O)cc1 , TGI read as 34.4 µM

Lab note: CCn1c(-c2ccc(C)cc2)cs/c1=N\C(P(=O)(O)O)P(=O)(O)O gave TGI of > 100 µM

Sure, the documented TGI for CC(=O)O[C@H]1C(=O)[C@@]2(C)[C@H]([C@H](OC(=O)c3ccccc3)[C@]3(O)C[C@H](OC(=O)[C@H](O)[C@@H](NC(=O)CC(C)C)c4ccccc4)C(C)=C1C3(C)C)[C@]1(OC(C)=O)CO[C@@H]1C[C@@H]2O is > 10 µM

Reported TGI for CC(Oc1ccc(OCC2CCCCC2)cc1)C(=O)O (stereo not drawn) was > 100 µM

GET /value?item= O=C(c1cc2c(C(F)(F)F)onc2c2ccccc12)C(F)(F)F &field=TGI returns > 75.1 µM

The recorded TGI for entry CN[C@@H](C)[C@H](OP(=O)(O)OC1[C@@H](O)[C@H](O)C(O)[C@H](O)[C@@H]1O)c1ccccc1 (stereo partly drawn) equals > 100 µM

Lab book: TGI of CC(C)(C)OC(=O)NC(Cc1ccc(OCc2ccccc2)cn1)C(=O)N1CCSCC1 (stereo not drawn) noted as > 100 µM

Sample COc1cc([C@@H]2c3cc4c(cc3[C@H](OC(C)=O)[C@H]3COC(=O)[C@H]23)OCO4)cc(OC)c1OC ; TGI observed: > 100 µM

Sure, the documented TGI for COc1ccc(C(=O)C(Br)C(Br)C(=O)O)cc1 (stereo not drawn) is > 100 µM

Entry CSc1ccc(/C=C2\N=C(c3ccccc3)N(c3nc4c(Cl)cc(Cl)cc4s3)C2=O)cc1 ; TGI = > 100 µM

Entry O=C(Nc1ccc(Cl)cc1)c1cc2cc(F)ccc2cc1O ; TGI = > 100 µM

Recorded result, CSc1nc(O)c(/C=C2\C=Nc3ccccc32)[nH]1 , TGI: > 100 µM

Entry under test: N#C/C(=C/C=C/c1ccccc1)S(=O)c1ccccc1 (stereo not drawn) . Its TGI was 1.96 µM

// recorded TGI for Cc1ccc([N+](=O)[O-])cc1S(=O)(=O)Nc1ccc(C2=NNC(c3cccs3)C2)cc1 (stereo not drawn) : > 100 µM

molecule O=C1NC(=O)C(=O)C(c2nc3ccccc3s2)C1=O , TGI observed: > 100 µM

The reported value for O=C1OC[C@@H]2Cc3c([nH]c4ccccc34)[C@@H](c3cc(O)c(O)c(O)c3)N12 in terms of TGI is 42.9 µM

TGI recorded for this molecule, Nc1nc(N)c2nc(-c3ccco3)cnc2n1 , is > 100 µM

---

test system: A549 NSCLC; assay: NCI tumour cell line growth inhibition, 48 h; in the data active = GI50 below about 0.43 µM; inactive = the rest
Log the outcome using a class from true (active), false (inactive)

# input Any idea what this test logged for Oc1cccc(Cn2c(-c3cccc(O)c3O)nc3ccccc32)c1O ?
# output false

# input Fill in: this test's call for C#Cc1cccc(Nc2ncnc3ccc(-c4cnc(Cl)c(NS(C)(=O)=O)c4)cc23)c1 is ___
# output false

# input Each compound tested received a call. Report the one for O=C1/C(=C/c2ccccc2)CN(CCC(=O)N2C/C(=C\c3ccccc3)C(=O)/C(=C/c3ccccc3)C2)C/C1=C\c1ccccc1 .
# output false

# input Field: outcome | Entry: O=C1c2cccc3cc([N+](=O)[O-])cc(c23)C(=O)N1CCN1CCCC1
# output true

# input I'd appreciate the recorded outcome for CC1OC(O[C@H]2/C=C/C=C/C=C/C=C/C=C/C=C/C=C/[C@H](C)[C@@H](O)[C@@H](C)[C@H](C)OC(=O)C[C@H](O)C[C@H](O)CC[C@@H](O)[C@H](O)C[C@H](O)C[C@]3(O)C[C@H](O)[C@@H](C(=O)O)[C@H](C2)O3)C(O)C(N)C1O (some centres undefined) from this test.
# output false

# input Just curious, what result did O=C(Nc1ccc(Cl)cc1)c1cc2cc(F)ccc2cc1O get here?
# output false

# input Answer briefly: the call reported for NC(=O)c1cc(Cl)ccc1NC(=O)c1ccccc1-c1ccccc1 in this assay.
# output false

# input Could you check what this test reported for CNC(=O)c1cncc(/C=C/c2c(C)cccc2C)c1 ?
# output false

# input Can you look up the reported call for COc1ccc(Cl)cc1NC(=O)c1c(NC(=O)C(F)(F)C(F)(F)F)sc2c1CCCCC2 for me?
# output false
